experimental.system: benzodiazepine site of the GABAA receptor
assay.comment: GABAA receptor binding assay (displacement of 3H-Ro15-1788)
conditions.used: rat cortical tissue homogenate, 0.5 nM 3H-Ro15-1788 [3H-Flumazenil], 30 min at 4° C.
pKi: −log10 of the molar value.
test.readout: pKi

compound | experimental.system | test.readout | observed.result
CC1CC(=O)c2c(C(=O)Nc3ccc(OCCO)nc3)c[nH]c2C1 (stereo not shown) [Compound 15] | benzodiazepine site of the GABAA receptor | pKi | 7.92
